- Test system: L1210 leukemia ip in BDF1 mice, survival T/C
- protocolText: NCI In Vivo Anticancer Drug Screen. Data for tumor model L1210 Leukemia (intraperitoneal) in B6D2F1 (BDF1) mice
- experimentalSetup: endpoint: mean survival time; dose: 400.0 mg/kg/injection; schedule: Q01DX009 (ip); vehicle: other; higher = longer survival
- Method: The antitumor activity of compounds was measured in mice bearing transplantable tumors. Survival or tumor size were measured and the results are expressed as the measurement made in the treated group (T) divided by the measurement made in the vehicle treated control group (C). The tumor model used in this assay is L1210 Leukemia (intraperitoneal) in B6D2F1 (BDF1) mice
Toxic doses and inconclusive results are not listed.
attributeMeasured: T/C

Please supply the value of reported T/C for the item CN(C)C1(Cc2ccc(Cl)cc2)c2ccccc2-c2ccccc21 104 % of control

Identify the reported T/C for the following entry. CS(=N)(=O)c1ccccc1 (stereo unspecified) 97 % of control

Recall and state the measured T/C for CCCCCCCC(=O)NC1CCC(C(C)(C)C)CC1 (stereo unspecified) . 106 % of control

Look up and state reported T/C for C/C(=C\c1ccccc1)C(=O)c1ccccc1 108 % of control

Please list T/C recorded for the compound N=C(N[N+](=O)[O-])N(CCC(=O)O)N=O 98 % of control

Give the reported T/C for this compound. CC(=O)N(CC(=O)O)Cc1ccccc1 105 % of control
